Test system Carbonic anhydrase 12 (Homo sapiens), pKi listed for each of the compounds.
Numbers only, as −log10 of the molar value.

Recorded results for 8 compounds are shown here.
[[record]]
smi = "C#CCOc1ccc(S(N)(=O)=O)cc1"
endpoint_value = 8.64

[[record]]
smi = "CCCOc1ccc(S(N)(=O)=O)cc1"
endpoint_value = 8.10

[[record]]
smi = "NS(=O)(=O)c1ccc2c(c1)CCN2C(=O)C(F)(F)F"
endpoint_value = 8.39

[[record]]
smi = "C=CCOc1ccc(S(N)(=O)=O)cc1"
endpoint_value = 8.17

[[record]]
smi = "C#CCN(CC#C)c1ccc(S(N)(=O)=O)cc1"
endpoint_value = 8.31

[[record]]
smi = "NS(=O)(=O)c1ccc(OCCc2ccccc2)cc1"
endpoint_value = 8.92

[[record]]
smi = "NS(=O)(=O)c1ccc(OCC#Cc2ccccc2)cc1"
endpoint_value = 7.47

[[record]]
smi = "NS(=O)(=O)c1ccc(OCc2c(F)c(F)c(F)c(F)c2F)cc1"
endpoint_value = 9.12


Query block: For the record `NS(=O)(=O)c1ccc(OCC(c2ccccc2)c2ccccc2)cc1` , what value of pKi is listed for Carbonic anhydrase 12 (Homo sapiens)?
Result block: 7.30

----------
Test system Carbonic anhydrase 9 (Homo sapiens), pKi listed for each of the molecules.
Answers are plain numbers, as −log10 of the molar value.

Recorded results for 6 molecules are shown here.
[[record]]
smi = "NS(=O)(=O)c1ccc(OCc2c(F)c(F)c(F)c(F)c2F)cc1"
endpoint_value = 9.07

[[record]]
smi = "NS(=O)(=O)c1nc2ccc(OCC#Cc3ccccc3)cc2s1"
endpoint_value = 7.99

[[record]]
smi = "CCOc1ccc(S(N)(=O)=O)cc1"
endpoint_value = 8.09

[[record]]
smi = "C=CCOc1ccc(S(N)(=O)=O)cc1"
endpoint_value = 7.87

[[record]]
smi = "NS(=O)(=O)c1ccc2c(c1)CCN2C(=O)C(F)(F)F"
endpoint_value = 8.16

[[record]]
smi = "C#CCN(CC#C)c1ccc(S(N)(=O)=O)cc1"
endpoint_value = 8.05


Please examine the following record next.
Query block: Item under review: `NS(=O)(=O)c1ccc(OCc2ccc([N+](=O)[O-])cc2)cc1` . Reported pKi?
Result block: 8.89

----------
# system under test: Carbonic anhydrase 1 (Homo sapiens)
# protocol description: Inhibition of human recombinant CA-1 after 15 mins by stopped-flow CO2 hydrase assay
Category | rule: reported Ki within range, see low (below 200 nM), medium (200 nM to below 800 nM), high (800 nM or more)

[[record]]
smi = "C#CCN(CC#C)c1ccc(S(N)(=O)=O)cc1"
system_under_test = "Carbonic anhydrase 1 (Homo sapiens)"
assigned_class = "high"

[[record]]
smi = "NS(=O)(=O)c1ccc(OCCN2CCOCC2)cc1"
system_under_test = "Carbonic anhydrase 1 (Homo sapiens)"
assigned_class = "medium"

[[record]]
smi = "NS(=O)(=O)c1nc2ccc(OCC#Cc3ccccc3)cc2s1"
system_under_test = "Carbonic anhydrase 1 (Homo sapiens)"
assigned_class = "high"

[[record]]
smi = "CCOc1ccc(S(N)(=O)=O)cc1"
system_under_test = "Carbonic anhydrase 1 (Homo sapiens)"
assigned_class = "medium"


Query block: Which bin should I file `NS(=O)(=O)c1ccc(OCc2ccc(Br)cc2)cc1` under?
Result block: medium

Query block: For `NS(=O)(=O)c1nc2ccc(OCc3ccccc3)cc2s1` then?
Result block: low

Query block: For `NS(=O)(=O)c1ccc(OCC#Cc2ccccc2)cc1` then?
Result block: high

Query block: For `NS(=O)(=O)c1ccc2c(c1)CCN2C(=O)C(F)(F)F` then?
Result block: low

Query block: For `NS(=O)(=O)c1ccc(OCc2ccc(F)cc2)cc1` then?
Result block: medium

----------
Exercise: for every item that follows, state its recorded Ki.
# system under test: UniProt P43166
# protocol description: Inhibition of human recombinant CA-7 after 15 mins by stopped-flow CO2 hydrase assay
Give bare numbers, in nM.

Recorded results for 5 molecules are shown here.
[[record]]
smi = "NS(=O)(=O)c1nc2ccc(OCc3ccccc3)cc2s1"
scale_unit = "nM"
endpoint_value = 7.7

[[record]]
smi = "CCOc1ccc(S(N)(=O)=O)cc1"
scale_unit = "nM"
endpoint_value = 9.5

[[record]]
smi = "NS(=O)(=O)c1ccc(OCC(c2ccccc2)c2ccccc2)cc1"
scale_unit = "nM"
endpoint_value = 70.7

[[record]]
smi = "C=CCOc1ccc(S(N)(=O)=O)cc1"
scale_unit = "nM"
endpoint_value = 9.9

[[record]]
smi = "CCCOc1ccc(S(N)(=O)=O)cc1"
scale_unit = "nM"
endpoint_value = 10.1


Record Ki per entry; entries follow.
1. NS(=O)(=O)c1ccc(OCc2ccc(F)cc2)cc1
2. C#CCOc1ccc(S(N)(=O)=O)cc1
3. NS(=O)(=O)c1ccc(OCc2ccc(Br)cc2)cc1
4. NS(=O)(=O)c1ccc2c(c1)CCN2C(=O)C(F)(F)F
5. CCCCOc1ccc(S(N)(=O)=O)cc1
6. NS(=O)(=O)c1ccc(OCc2c(F)c(F)c(F)c(F)c2F)cc1
7. NS(=O)(=O)c1ccc(OCc2ccccc2)cc1

Result block:
1: 9.7; 2: 9.6; 3: 8.9; 4: 8.3; 5: 9.8; 6: 8.9; 7: 8.3

----------
# system under test: Carbonic anhydrase 7 (Homo sapiens, UniProt P43166)
# Sequence (P43166 whole entry): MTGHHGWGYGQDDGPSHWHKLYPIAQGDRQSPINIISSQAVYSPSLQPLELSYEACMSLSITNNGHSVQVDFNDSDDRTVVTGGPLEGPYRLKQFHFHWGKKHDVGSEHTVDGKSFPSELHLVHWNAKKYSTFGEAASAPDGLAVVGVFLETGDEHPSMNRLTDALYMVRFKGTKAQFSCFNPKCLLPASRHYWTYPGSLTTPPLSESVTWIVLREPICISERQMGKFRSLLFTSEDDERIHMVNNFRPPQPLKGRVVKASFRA
# protocol description: Inhibition of human recombinant CA-7 after 15 mins by stopped-flow CO2 hydrase assay
Note to self: use Criterion met only for Ki readings below 90 nM; a reading exactly at 90 nM still gets Criterion not met.

Query block: A record lists `NS(=O)(=O)c1ccc(OCCN2CCOCC2)cc1` . Is its Ki below 90 nM?
Result block: Criterion met

Query block: For `NS(=O)(=O)c1nc2ccc(OCC#Cc3ccccc3)cc2s1` then?
Result block: Criterion met

Query block: For `NS(=O)(=O)c1ccc(OCCc2ccccc2)cc1` then?
Result block: Criterion met

Query block: For `NS(=O)(=O)c1ccc(OCc2ccc([N+](=O)[O-])cc2)cc1` then?
Result block: Criterion met

Query block: For `C#CCN(CC#C)c1ccc(S(N)(=O)=O)cc1` then?
Result block: Criterion met

Query block: For `NS(=O)(=O)c1ccc(OCC#Cc2ccccc2)cc1` then?
Result block: Criterion not met

----------
Exercise: for every item that follows, state its recorded Ki.
# system under test: Carbonic anhydrase 1 (Homo sapiens, UniProt P00915)
# Sequence (P00915 whole entry): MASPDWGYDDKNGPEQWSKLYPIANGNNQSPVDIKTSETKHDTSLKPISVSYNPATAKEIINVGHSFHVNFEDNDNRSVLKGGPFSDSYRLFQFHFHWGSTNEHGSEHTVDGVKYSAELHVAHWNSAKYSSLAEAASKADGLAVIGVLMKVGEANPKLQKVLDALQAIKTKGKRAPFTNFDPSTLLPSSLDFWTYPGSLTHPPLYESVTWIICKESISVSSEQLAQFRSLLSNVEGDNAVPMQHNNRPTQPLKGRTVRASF
# protocol description: Inhibition of human recombinant CA-1 after 15 mins by stopped-flow CO2 hydrase assay
One number for each entry, in nM.

Recorded results for 5 compounds are shown here.
[[record]]
smi = "CCCCOc1ccc(S(N)(=O)=O)cc1"
scale_unit = "nM"
endpoint_value = 797

[[record]]
smi = "NS(=O)(=O)c1ccc(OCc2ccccc2)cc1"
scale_unit = "nM"
endpoint_value = 762

[[record]]
smi = "NS(=O)(=O)c1ccc(OCc2c(F)c(F)c(F)c(F)c2F)cc1"
scale_unit = "nM"
endpoint_value = 231

[[record]]
smi = "NS(=O)(=O)c1ccc(OCc2ccc([N+](=O)[O-])cc2)cc1"
scale_unit = "nM"
endpoint_value = 143

[[record]]
smi = "NS(=O)(=O)c1ccc(OCCc2ccccc2)cc1"
scale_unit = "nM"
endpoint_value = 207


Record Ki per entry; entries follow.
1. NS(=O)(=O)c1ccc(OCC(c2ccccc2)c2ccccc2)cc1
2. C#CCOc1ccc(S(N)(=O)=O)cc1

Result block:
1: 5680; 2: 2340

----------
# system under test: Carbonic anhydrase 2 (Homo sapiens)
# protocol description: Inhibition of human recombinant CA-2 after 15 mins by stopped-flow CO2 hydrase assay
Exercise: for every item that follows, state its recorded pKi.
Answers are plain numbers, as −log10 of the molar value.

Record pKi per entry; entries follow.
1. NS(=O)(=O)c1ccc(OCc2ccc(Br)cc2)cc1
2. NS(=O)(=O)c1ccc(OCc2ccc([N+](=O)[O-])cc2)cc1
3. NS(=O)(=O)c1nc2ccc(OCC#Cc3ccccc3)cc2s1
4. C#CCOc1ccc(S(N)(=O)=O)cc1
5. NS(=O)(=O)c1nc2ccc(OCc3ccccc3)cc2s1
6. NS(=O)(=O)c1ccc(OCc2ccc(F)cc2)cc1
7. CCCOc1ccc(S(N)(=O)=O)cc1

Result block:
[7.56, 8.85, 7.28, 7.54, 8.12, 7.62, 7.89]

----------
# system under test: Carbonic anhydrase 2 (Homo sapiens)
# protocol description: Inhibition of human recombinant CA-2 after 15 mins by stopped-flow CO2 hydrase assay
metric: Ki (nM)
One number for each entry, in nM.

Record Ki per entry; entries follow.
1. NS(=O)(=O)c1ccc2c(c1)CCN2C(=O)C(F)(F)F
2. CCOc1ccc(S(N)(=O)=O)cc1
3. C#CCN(CC#C)c1ccc(S(N)(=O)=O)cc1
4. NS(=O)(=O)c1ccc(OCC#Cc2ccccc2)cc1

Result block:
9.2
23.1
1780
41.6

----------
Exercise: for every item that follows, state its recorded pKi.
# system under test: Carbonic anhydrase 2 (Homo sapiens, UniProt P00918)
# protocol description: Inhibition of human recombinant CA-2 after 15 mins by stopped-flow CO2 hydrase assay
Numbers only, as −log10 of the molar value.

[[record]]
smi = "NS(=O)(=O)c1ccc(OCCN2CCOCC2)cc1"
metric = "pKi"
endpoint_value = 7.50

[[record]]
smi = "NS(=O)(=O)c1ccc(OCCc2ccccc2)cc1"
metric = "pKi"
endpoint_value = 8.11

[[record]]
smi = "CCCCOc1ccc(S(N)(=O)=O)cc1"
metric = "pKi"
endpoint_value = 8.14


Record pKi per entry; entries follow.
1. NS(=O)(=O)c1ccc(OCc2c(F)c(F)c(F)c(F)c2F)cc1
2. NS(=O)(=O)c1ccc(OCc2ccccc2)cc1
3. NS(=O)(=O)c1ccc(OCC(c2ccccc2)c2ccccc2)cc1

Result block:
1. 7.59
2. 7.69
3. 7.66
